# experimental protocol: chemical genetic growth profiling, strain panel (AID 1159580);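 further: tested at 20 µM; growth read once vehicle control cultures reached saturation at 30 °C; lower values mean less growth of the strain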
# measurement conditions: S. cerevisiae deletion strains, growth OD, locus YNL250W, strain rad50
In all, about 5,500 compounds went through this assay and about 2,000 (36%) were called active. About 18% were inconclusive and are not listed. No stated cut-off is given here; in the data, active means normalized growth mostly below about 0.91 (no sharp cut-off); inconclusive means no clear call, values can overlap the other calls; inactive means mostly above about 0.92. The list shows a part of the results.
Possible outcomes: active, inactive

compound	assigned category
CC(=O)O[C@@H]1CC2C(C)(C)C(=O)C=C[C@]2(C)C2CC[C@@]3(C)[C@H](c4ccoc4)OC(=O)[C@H]4O[C@]43[C@@]21C (stereo not given in full)	inactive
CC1(C)C2CC(=O)[C@]3(C)C(CC[C@@]4(C)[C@H](c5ccoc5)OC(=O)C5OC543)[C@@]2(C)[C@@H](O)C[C@H]1O (stereo not given in full)	inactive
O=C(O[C@@H]1Cc2c(O)cc(O)cc2O[C@@H]1c1cc(O)c(=O)c2c(O)c(O)cc([C@H]3Oc4cc(O)cc(O)c4C[C@H]3OC(=O)c3cc(O)c(O)c(O)c3)c2c1)c1cc(O)c(O)c(O)c1	inactive
CC/C(=C(/CC)c1ccc(O)cc1)c1ccc(O)cc1	inactive
CC1(C)O[C@H]2CC(=O)OC[C@]23[C@H]2CC[C@@]4(C)[C@H](c5ccoc5)OC(=O)[C@H]5O[C@]54[C@]2(C)C(=O)C[C@@H]13	inactive
COc1cc(OC)c2ccc(=O)oc2c1	inactive
COc1ccc2ccc(=O)oc2c1	inactive
COc1cc2occc2c2oc(=O)ccc12	inactive
CC(C)c1c(O)c(-c2cc3c(c(C(C)C)c2O)CCC2C(C)(C)CCC[C@]32C)cc2c1CCC1C(C)(C)CCC[C@]21C (stereo not given in full)	inactive
O=C(OC1Cc2c(O)cc(O)cc2OC1c1cc(=O)c(O)c2c(O)c(O)cc(C3Oc4cc(O)cc(O)c4CC3O)c2c1)c1cc(O)c(O)c(O)c1 (stereo not given)	inactive
O=C(O[C@@H]1Cc2c(O)cc(O)cc2O[C@@H]1c1cc(O)c(=O)c2c(O)c(O)cc([C@H]3Oc4cc(O)cc(O)c4C[C@H]3O)c2c1)c1cc(O)c(O)c(O)c1	inactive
CCC(c1ccc(O)cc1)C(CC)c1ccc(O)cc1 (stereo not given)	inactive
CC(C)c1c(O)ccc2c1CCC1C(C)(C)CCC[C@]21C (stereo not given in full)	active
COc1ccc2c(c1C(C)C)CCC1C(C)(C)C(=O)CCC21C (stereo not given)	inactive
CC1(C)C=CC(=O)[C@@]2(C)C1CC(=O)[C@]1(C)C2CC[C@@]2(C)[C@H](c3ccoc3)OC(=O)C3OC321 (stereo not given in full)	inactive
